target: human NAMPT enzyme (His-hNAMPT) (Homo sapiens (Human)); assay: NAMPT enzymatic inhibition assay (fluorescence, NADH product); assay type: biochemical; settings: [HDB]; read-out: NAMPT IC50 (μM) [HDB]
measure.name: IC50

[
  {
    "molecule": "O=C(/C=C/c1cccnc1)NCC[C@@H]1[C@H]2CN(c3ccc4c(c3)CNC4=O)C[C@@H]12 [Example 157]",
    "tested.on": "human NAMPT enzyme (His-hNAMPT) (Homo sapiens (Human))",
    "assay.value": "< 0.01 µM"
  }
]

Item: O=C(/C=C/c1cccnc1)NCC[C@@H]1[C@H]2CN(c3ccc4c(c3)C(=O)NC4)C[C@@H]12 [Example 156] | IC50: 0.01 to 0.49 µM

Record O=C(/C=C/c1ccccn1)NCC[C@@H]1[C@H]2CN(c3nc(Cl)ncc3F)C[C@@H]12 [Example 209] , field IC50: 0.01 to 0.49 µM

---

biological target: human NAMPT enzyme (His-hNAMPT) (Homo sapiens (Human), UniProt P43490); assay: NAMPT enzymatic inhibition assay (fluorescence, NADH product); format: biochemical; conditions: [BPS]; read-out: NAMPT IC50 (μM) [BPS]
Sequence (P43490 whole entry): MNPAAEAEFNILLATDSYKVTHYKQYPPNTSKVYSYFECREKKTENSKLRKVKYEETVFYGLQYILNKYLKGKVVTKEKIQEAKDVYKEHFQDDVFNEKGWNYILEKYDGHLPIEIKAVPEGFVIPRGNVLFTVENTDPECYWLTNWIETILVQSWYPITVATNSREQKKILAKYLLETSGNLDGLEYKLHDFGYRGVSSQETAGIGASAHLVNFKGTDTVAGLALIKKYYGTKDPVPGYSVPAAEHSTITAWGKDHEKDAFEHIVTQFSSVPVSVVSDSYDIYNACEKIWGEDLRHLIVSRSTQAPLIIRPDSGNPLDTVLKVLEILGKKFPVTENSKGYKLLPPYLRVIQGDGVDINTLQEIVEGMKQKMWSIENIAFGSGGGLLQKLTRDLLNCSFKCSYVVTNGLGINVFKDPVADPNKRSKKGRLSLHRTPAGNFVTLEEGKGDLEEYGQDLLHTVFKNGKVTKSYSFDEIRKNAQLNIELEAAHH
measure.name: IC50

See these solved cases before continuing.
[
  {
    "compound": "O=C(NCC[C@@H]1[C@H]2CN(C(=O)Nc3ccccc3)C[C@@H]12)c1ccc2nccn2c1 [Example 65]",
    "IC50": "1 to 29 µM"
  },
  {
    "compound": "CC(C)(C)OC(=O)N1C[C@H]2CCC(CNC(=O)NCc3cccnc3)C[C@H]2C1 (stereo in doubt) [Example 269]",
    "IC50": "1 to 29 µM"
  },
  {
    "compound": "CC1(OC(=O)N2C[C@@H]3[C@@H](CNC(=O)/C=C/c4ccc(N)nc4)[C@@H]3C2)COC1 [Example 239]",
    "IC50": "1 to 29 µM"
  }
]

Form: compound = O=C(NCC[C@@H]1[C@H]2CN(C(=O)c3ccc(F)cc3)C[C@@H]12)c1cc(-c2cccnc2)on1 [Example 110] ; IC50 = 0.01 to 0.49 µM

# IC50 of Nc1ccc(/C=C/C(=O)NC[C@@H]2[C@H]3CN(C(=O)c4ccccc4)C[C@@H]23)cn1 [Example 240] = 1 to 29 µM
